testedOn: T1, full-length human SIRPαV2 (CAA71403.1) on cells (human, UniProt P78324 31-504)
T1 construct: one molecule for CHO-K1 and Expi-CHO transfectants (CAA71403.1) and for endogenous V2 on THP-1 cells and on CD14+ monocytes of V2/V2 donors; also called CHO-hSIRPαV2; αV2 WT
procedureDetails: flow cytometry, competition with CD47 tetramer, CHO-K1 cells
reportedProperty: IC50 (nM)

{"columns": ["binder", "endpointValue"],
 "data": [
  ["Antibody C (antibody, human IgG1, kappa, L234A L235A, V domains shown) VH: EVQLVESGGGLVQPGGSLRLSCAASGFTFSSYDMHWVRQATGKGLEWVSVIGIAGDTYYPGSVKGRFTISRENAKNSLYLQMNSLRVGDTAVYYCARGGSWDDAFDIWGQGTMVTVSS VL: DIQMTQSPSSLSASIGDKVTITCRASQDINNYLAWFQQKPGKAPKSLIYTASSLQSGVPSKFSGSGSGTDFTLTISSLQPEDFATYYCQQYVSYPYTFGQGTKLEIKR", 0.3],
  ["Antibody D (antibody, human IgG1, kappa, L234A L235A, V domains shown) VH: EVQLVESGGGLVQPGGSLRLSCAASGFTFSSFDMHWVRQPTGKGLEWVSTIGIAGDTYFPGSVKGRFTISRENAKNSLYLQMNSLRAGDTAVYYCARGGNWDDALDIWGQGTMVTVSS VL: DIQMTQSPSSLSASVGDRVTITCRASQDINNYLAWFQQKPGKAPKSLIYTASSLQSGVPSKFSGSGSGTDFTLTISSLQPEDFATYYCQQYNTYPYTFGQGTKLEIKR", 0.3],
  ["Anti-SIRPα antibody KWAR23 (antibody, V domains shown) VH: EVQLQQSGAELVKPGASVKLSCTASGFNIKDYYIHWVQQRTEQGLEWIGRIDPEDGETKYAPKFQDKATITADTSSNTAYLHLSSLTSEDTAVYYCARWGAYWGQGTLVTVSS VL: QIVLTQSPAIMSASPGEKVTLTCSASSSVSSSYLYWYQQKPGSSPKLWIYSTSNLASGVPARFSGSGSGTSYSLTISSMEAEDAASYFCHQWSSYPRTFGAGTKLELK", 0.6],
  ["Antibody B (antibody, human IgG1, kappa, L234A L235A, V domains shown) VH: QVQLVQSGAEVKKPGASVKVSCKASGYTFTGNYMHWVRQAPGQGLEWMGWINPNSGGTNYAQKFQGRVTMTRDTSISTAYMELSRLRSDDTAVYYCVSGSGWYENYYYYGMDVWGQGTTVTVSS VL: DIQMTQSPSSVSASVGDRVTITCRASQGISSWLAWYQQKPGKAPKLLIYAESSLQSGVPSRFSGSGSGTDFTLTISSLQPEDFATYYCQQANSFPLTFGGGTKVEIKR", 6]
]}

Data origin, for the record: patent US20230012273A1
